# Test system: MDA-MB-231
# Run Description: NCI tumour cell line growth inhibition, 48 h
Active and inactive are the calls of the source. Rule as the data show it: active = GI50 up to about 1.1 µM and inactive = higher.
Consider the following compounds; for each one, report its GI50.

(Q) Identify the measured GI50 of "CC1=C2C(=O)c3ccccc3C(=O)[C@H]2C[C@@H](N2CCCCCC2=O)O1" for MDA-MB-231.
(A) 22.5 µM (inactive)

(Q) Identify the measured GI50 of "CC1(C)N=C(N)N=C(N)N1c1cccc(OCCOc2ccc([N+](=O)[O-])cc2)c1" for MDA-MB-231.
(A) > 100 µM (inactive)

(Q) Identify the measured GI50 of "O=c1[nH]c2cc3cccnc3c(Cl)c2nc1C(F)(F)F" for MDA-MB-231.
(A) 30.3 µM (inactive)

(Q) Identify the measured GI50 of "COS(C)(=O)=O" for MDA-MB-231.
(A) > 2 µM (inactive)

(Q) Identify the measured GI50 of "CC(=O)Oc1c2c(c3n(c1=O)CCCC3)C(=O)N(c1ccccc1)C2=O" for MDA-MB-231.
(A) > 100 µM (inactive)

(Q) Identify the measured GI50 of CCOc1cc(C2SCC(=O)N2c2ccc(Oc3ccc(Cl)cc3)c(Cl)c2)ccc1O (configuration not stated) for MDA-MB-231.
(A) 19.3 µM (inactive)

(Q) Identify the measured GI50 of COc1ccc(/C=C2\CCC(Cc3ccccc3)(CN(C)C)C2=O)cc1 (configuration not stated) for MDA-MB-231.
(A) 98.9 µM (inactive)

(Q) Identify the measured GI50 of C=CCOC(=O)C1=C(C)N=C2N[C@H](CCCCCCCCC)C[C@@H]3CCC1N23 (some centres not stated) for MDA-MB-231.
(A) 21.5 µM (inactive)

(Q) Identify the measured GI50 of C=C1C(O)C2OC(=O)C(=C)C2C(OC(=O)/C(C)=C/C)CC2(C)OC2C2OC12 (configuration not stated) for MDA-MB-231.
(A) 8.36 µM (inactive)

(Q) Identify the measured GI50 of "CCCC[C@H]1CCN2C[C@@H](O)[C@@H](O)[C@H]2[C@@H]1O" for MDA-MB-231.
(A) > 100 µM (inactive)

(Q) Identify the measured GI50 of CSC12c3cc(C)n(-c4ccc(I)cc4)c3CC(C)(C)CN1C(=O)C2Oc1ccccc1 (configuration not stated) for MDA-MB-231.
(A) > 100 µM (inactive)

(Q) Identify the measured GI50 of "Cc1[nH]c(=O)c2oc3cc4ccccc4cc3c2c1C(=O)O" for MDA-MB-231.
(A) > 10 µM (inactive)

(Q) Identify the measured GI50 of "C[n+]1c(-c2ccc(/C=N\N3CCN(/N=C/c4ccc(-c5cn6ccsc6[n+]5C)cc4)CC3)cc2)cn2ccsc21" for MDA-MB-231.
(A) 20.7 µM (inactive)

(Q) Identify the measured GI50 of "O=C(O)COc1cccc2ccccc(=O)c12" for MDA-MB-231.
(A) > 100 µM (inactive)

(Q) Identify the measured GI50 of "OCCOCn1nncc1Cn1ncc2c(SCc3ccccc3)ncnc21" for MDA-MB-231.
(A) > 100 µM (inactive)

(Q) Identify the measured GI50 of "CC(=O)Nc1sc([N+](=O)[O-])cc1S(=O)(=O)c1ccc(Cl)cc1" for MDA-MB-231.
(A) 4.23 µM (inactive)

(Q) Identify the measured GI50 of "CC(=O)c1cc2c(s1)C(=O)c1ccsc1C2=O" for MDA-MB-231.
(A) 0.327 µM (active)

(Q) Identify the measured GI50 of "CC(=O)Nc1ccc(-c2cc(C(=O)O)c3cc4ccccc4cc3n2)cc1" for MDA-MB-231.
(A) > 100 µM (inactive)

(Q) Identify the measured GI50 of "COc1cccc(Nc2nc(C)c([N+](=O)[O-])c(Nc3cccc(OC)c3)n2)c1" for MDA-MB-231.
(A) 49.7 µM (inactive)

(Q) Identify the measured GI50 of "COc1ccc(-c2cc3cc(Cl)cc(Cl)c3oc2=O)cc1OC" for MDA-MB-231.
(A) 62.7 µM (inactive)

(Q) Identify the measured GI50 of "[N-]=[N+]=Nc1cc(=O)[nH]nc1-c1ccccc1" for MDA-MB-231.
(A) > 100 µM (inactive)

(Q) Identify the measured GI50 of COc1nc(C#CCC(C)O)nc(OC)n1 (configuration not stated) for MDA-MB-231.
(A) 21.2 µM (inactive)

###

# System: COLO 205
# Run Description: NCI tumour cell line growth inhibition, 48 h
Active and inactive are the calls of the source. Cut-off read from the data, not from the text of the source: active = GI50 up to about 1.1 µM and inactive = higher.
Respond with a class label; see T (active), F (inactive)

(Q) Write down the call the test reported for this compound. Item: O=C(NC1C=Nc2ccc([N+](=O)[O-])cc2NC1=O)c1cc(Cl)cc([N+](=O)[O-])c1 (stereo not given)
(A) F

(Q) Write down the call the test reported for this compound. Item: CCCCCCCCCCCCCCCCCCN(C)C(COC)COP(=O)([O-])OCC[N+](C)(C)C (stereo not given)
(A) F

(Q) Write down the call the test reported for this compound. Item: CC(=O)CC(=O)OC1CC(C)CCC1C(C)C (stereo not given)
(A) F

(Q) Write down the call the test reported for this compound. Item: COc1cc2c(cc1O)CCN[C@@]21CS[C@H]2c3c(OC(C)=O)c(C)c4c(c3C(COC1=O)N1C2C2c3c(cc(C)c(OC)c3O)CC([C@@H]1O)N2C)OCO4 (stereo not given in full)
(A) T

(Q) Write down the call the test reported for this compound. Item: "COC(=O)C(CCS(=O)(=O)CC(=O)C(=O)Nc1cccc(C(C)=O)c1)C(=O)OC"
(A) F

(Q) Write down the call the test reported for this compound. Item: CC(=O)OC1CC2C(C)(C)C(=O)C=C[C@]2(C)C2CCC3(C)C(c4ccoc4)[C@@H](O)[C@H]4O[C@]43[C@]12C (stereo not given in full)
(A) F

(Q) Write down the call the test reported for this compound. Item: "COC(=O)c1c[nH]c(=O)[nH]c1=O"
(A) F

(Q) Write down the call the test reported for this compound. Item: COc1ccc(C(C#N)NNC(=O)c2ccccc2O)cc1OC (stereo not given)
(A) F

(Q) Write down the call the test reported for this compound. Item: NC1=NN(c2ccccc2)C(=O)C1/C(=N\NC(=O)c1cc2ccccc2cc1O)C(=O)Nc1nc([N+](=O)[O-])cs1 (stereo not given)
(A) F

(Q) Write down the call the test reported for this compound. Item: N#CC(/C(CCC(=O)Nc1ccc(Cl)cc1)=N/NC(=O)c1cc2ccccc2cc1O)c1ccccc1 (stereo not given)
(A) F

(Q) Write down the call the test reported for this compound. Item: "CCOC(=O)[C@H]1C[C@@H](C(=O)c2ccccc2)N2N=C(c3ccc(Br)cc3)C=C[C@H]12"
(A) F

(Q) Write down the call the test reported for this compound. Item: "CSC1=NN=C(SC)NN1"
(A) T

(Q) Write down the call the test reported for this compound. Item: CCN1CCC(O)(C(C(=O)O)c2ccccc2)CC1 (stereo not given)
(A) F

(Q) Write down the call the test reported for this compound. Item: "CCCC(=O)NC1=C(Cl)C(=O)c2ccccc2C1=O"
(A) F

(Q) Write down the call the test reported for this compound. Item: "COc1ccc(/C(Cl)=C(\C=O)c2ccc(F)cc2)cc1OC"
(A) F

(Q) Write down the call the test reported for this compound. Item: "N#C/C(=C/n1c(=S)[nH]c2ccc([N+](=O)[O-])cc21)C(N)=O"
(A) F

(Q) Write down the call the test reported for this compound. Item: CC12CC1C(c1cccc([N+](=O)[O-])c1)(c1cccc([N+](=O)[O-])c1)N=N2 (stereo not given)
(A) F

(Q) Write down the call the test reported for this compound. Item: C=C1C(O)C2OC(=O)C(=C)C2C(OC(=O)/C(C)=C/C)CC2(C)OC2C2OC12 (stereo not given)
(A) F

(Q) Write down the call the test reported for this compound. Item: "CCOc1ccccc1NC(=O)C(=O)Cc1nc2ccccc2s1"
(A) F

(Q) Write down the call the test reported for this compound. Item: "O=C(N/N=C/c1cc(Br)cc(Br)c1O)c1ccccc1O"
(A) F
